target.under.test: T1, recombinant biotinylated CD137 protein (Fc-fusion protein, R&D Systems 838-4B) (human, UniProt Q07011 24-186, biotinylated, sites not stated)
T1 construct: Bought Fc fusion; also called CD137-Fc
assay.protocol: ELISA, lysate on biotinylated CD137-Fc
readout.kind: ELISA CD137 (RLU)

Take a look at these entries with their results.
# binder, unit.symbol, ELISA CD137 (RLU)
records = [
    ("ISOP193ER9P1F9 (designed binder, not shown: small tags and cut ends) LPAPKNLVVSRVTEDSARLSWTAPDAAFDSFHIYYGEHYNLGEAIVLTVPGSERSYDLTGLKPGTEYLVTIYGVKGGFWSTPLSAIFTT", "RLU", "1.5e+07"),
    ("ISOP193GR9P1F6 (designed binder, not shown: small tags and cut ends) LPAPKNLVVSRVTEDSARLSWTAPDAAFDSFEIDYWEVESEGEAIVLFVPGSERSYDLTGLKPGTEYHVHIVGVKGGTPSYPLWADFTT", "RLU", "9.85e+06"),
    ("ISOP193AR9P1C10 (designed binder, not shown: small tags and cut ends) LPAPKNLVVSRVTEDSARLSWPNHISIFDSFLIQYQESEKVGEAIVLTVPGSERSYDLTGLKPGTEYTVSIYGVGRFYTVFDSNPLSAIFTT", "RLU", "7.14e+06"),
]

I = ISOP193ER9P1E4 (designed binder, not shown: small tags and cut ends) LPAPKNLVVSRVTEDSARLSWTAPDAAFDSFAIIYQEYVKSGEAIVLTVPGSERSYDLTGLKPGTEYHVRIGGVKGGLLSLPLSAIFTT
II = ISOP193AR9P1F4 (designed binder, not shown: small tags and cut ends) LPAPKNLVVSRVTEDSARLSWLEQEQFVNHFDSFLIQYQESEKVGEAIVLTVPGSERSYDLTGLKPGTEYTVSIYGVQYVDGFFKSNPLSAIFTT
III = ISOP193FR9P1F8 (designed binder, not shown: small tags and cut ends) LPAPKNLVVSRVTEDSARLSWTAPDAAFDSFDINYFENELGGEAIVLTVPGSERSYDLTGLKPGTEYLVTIYGVKGCDWSDPLSAIFTT
Arrange the 3 entries by ELISA CD137 (RLU) so the values rise. API: response body holds the labels in the requested order. II, III, I
(II: 3.84e+06 RLU, III: 8.57e+06 RLU, I: 1.26e+07 RLU)

Value source: patent US20220259289A1
